- Test Target: Voltage-dependent N-type calcium channel subunit alpha-1B (Homo sapiens)
- Assay Name: Percent inhibition of N-type [Ca2+] channel (Alpha-1B) expressed in HEK293 cells at 10 uM
- Assay type: cell-based
Experimental Endpoint: inhibition (%)

Record excerpt, results attached:
CC(C)(C)OC(=O)NCCCCCNC1=Nc2ccccc2C(CC(=O)NCc2ccccc2)N1c1ccc(-c2ccccc2)cc1 (stereo not drawn)	16.6
COC(=O)CC1c2ccccc2N=C(Nc2ccc(-c3ccccc3)cc2)N1CCCCCNC(=O)OC(C)(C)C (stereo not drawn)	94.9
COC(=O)CC1c2ccccc2N=C(Nc2ccc(-c3ccccc3)cc2)N1CCCCCN (stereo not drawn)	7.5
COCC(=O)O[C@]1(CCN(C)CCCc2nc3ccccc3[nH]2)CCc2cc(F)ccc2[C@@H]1C(C)C	67.6

a = NCCCCCN1C(Nc2ccc(-c3ccccc3)cc2)=Nc2ccccc2C1CC(=O)NCc1ccccc1 (stereo not drawn)
b = NCCCCCNC1=Nc2ccccc2C(CC(=O)NCc2ccccc2)N1c1ccc(-c2ccccc2)cc1 (stereo not drawn)
c = COC(=O)CC1c2ccccc2N=C(NCCCCCNC(=O)OC(C)(C)C)N1c1ccc(-c2ccccc2)cc1 (stereo not drawn)
d = CC(C)(C)OC(=O)NCCCCCN1C(Nc2ccc(-c3ccccc3)cc2)=Nc2ccccc2C1CC(=O)NCc1ccccc1 (stereo not drawn)
Ask: Sequence the entries by inhibition, beginning with the highest number. Respond with an ordered listing of the labels, as requested.
Reply: c, d, a, b
(c: 98.6%, d: 30.1%, a: 15.2%, b: 8.3%)
